Where these numbers come from: ChEMBL document CHEMBL4610005

IC50, Bromodomain-containing protein 4 (Homo sapiens, UniProt O60885), per-entry values.
Your answer is read as nM, so omit the unit and give the number.

| compound | target-under-test | IC50 / nM |
| --- | --- | --- |
| Cc1noc(C)c1-c1ccc2c(c1)C(c1ccccc1)N(CC(=O)NCCCCCC(=O)Nc1cccc3c1CN(C1CCC(=O)NC1=O)C3=O)C(=O)N2C (stereo not given) | Bromodomain-containing protein 4 (Homo sapiens, UniProt O60885) | 99.1 |
| Cc1noc(C)c1-c1ccc2c(c1)C(c1ccccc1)N(Cc1cn(CCOCCOCCOCC(=O)Nc3cccc4c3CN(C3CCC(=O)NC3=O)C4=O)nn1)C(=O)N2C (stereo not given) | Bromodomain-containing protein 4 (Homo sapiens, UniProt O60885) | 22.1 |
| Cc1noc(C)c1-c1ccc2c(c1)C(c1ccccc1)NC(=O)N2C (stereo not given) | Bromodomain-containing protein 4 (Homo sapiens, UniProt O60885) | 46.4 |

Problem: Test system Bromodomain-containing protein 4 (Homo sapiens, UniProt O60885); read-out IC50; what value for Cc1noc(C)c1-c1ccc2c(c1)C(c1ccccc1)N(CC(=O)NCCCCCCCC(=O)Nc1cccc3c1CN(C1CCC(=O)NC1=O)C3=O)C(=O)N2C (stereo not given) ?
Solution: 68.3

Problem: Form entry - test system: Bromodomain-containing protein 4 (Homo sapiens, UniProt O60885); read-out: IC50; compound: Cc1noc(C)c1-c1ccc2c(c1)C(c1ccccc1)N(CCCCC(=O)Nc1cccc3c1CN(C1CCC(=O)NC1=O)C3=O)C(=O)N2C (stereo not given)
Solution: 144

---

- target-under-test: Bromodomain-containing protein 4 (Homo sapiens, UniProt O60885)
measurement-name: pIC50
The meaning of pIC50 here: minus log10 of the concentration in molar units.

Problem: Item Cc1noc(C)c1-c1ccc2c(c1)C(c1ccccc1)N(C)C(=O)N2 (stereo unspecified) with Bromodomain-containing protein 4 (Homo sapiens, UniProt O60885) - pIC50?
Solution: 7.36

---

Let's look at some compounds and their measured inhibition.
- target-under-test: Bromodomain-containing protein 4 (Homo sapiens, UniProt O60885)
- condition-label: at 500 nM
- Description: Inhibition of recombinant human GST-tagged BRD4 BD1 (44 to 168 residues) expressed in Escherichia coli at 500 nM incubated for 60 mins by alphascreen assay relative to control
Response body: numeric value in %, unit text excluded.

Problem: Would you kindly share the measured inhibition for Cc1noc(C)c1-c1ccc2c(c1)C(c1ccccc1)N(Cc1cn(CCOCCOCCOCCOCC(=O)Nc3cccc4c3CN(C3CCC(=O)NC3=O)C4=O)nn1)C(=O)N2C (stereo not drawn) ?
Solution: 100

Problem: What does the record list as inhibition for Cc1noc(C)c1-c1ccc2c(c1)C(c1ccccc1)N(CC(=O)NCCCC(=O)Nc1cccc3c1CN(C1CCC(=O)NC1=O)C3=O)C(=O)N2C (stereo not drawn) ?
Solution: 89

Problem: Entry Cc1noc(C)c1-c1ccc2c(c1)C(c1ccccc1)N(Cc1cn(CCOCCOCC(=O)Nc3cccc4c3C(=O)N(C3CCC(=O)NC3=O)C4=O)nn1)C(=O)N2C (stereo not drawn) has what inhibition?
Solution: 93

---

- target-under-test: Bromodomain-containing protein 4 (Homo sapiens, UniProt O60885)
- condition-label: at 500 nM
measurement-name: inhibition

Guide cases for inhibition, answers given:
| molecule | inhibition |
| --- | --- |
| Cc1noc(C)c1-c1ccc2c(c1)C(c1ccccc1)N(Cc1cn(CCOCCOCC(=O)Nc3cccc4c3CN(C3CCC(=O)NC3=O)C4=O)nn1)C(=O)N2C (stereo not given) | 100% |
| Cc1noc(C)c1-c1ccc2c(c1)C(c1ccccc1)NC(=O)N2C (stereo not given) | 100% |
| Cc1noc(C)c1-c1ccc2c(c1)C(c1ccccc1)N(Cc1cn(CCOCC(=O)Nc3cccc4c3C(=O)N(C3CCC(=O)NC3=O)C4=O)nn1)C(=O)N2C (stereo not given) | 99% |
| Cc1noc(C)c1-c1ccc2c(c1)C(c1ccccc1)N(Cc1cn(CCOCCOCCOCCOCC(=O)Nc3cccc4c3C(=O)N(C3CCC(=O)NC3=O)C4=O)nn1)C(=O)N2C (stereo not given) | 60% |

--- query ---
Problem: Value lookup for inhibition; key = Cc1noc(C)c1-c1ccc2c(c1)C(c1ccccc1)N(CCCCC(=O)Nc1cccc3c1CN(C1CCC(=O)NC1=O)C3=O)C(=O)N2C (stereo not given)
Solution: 90%
